Where these numbers come from: paper PMC6212790

Biological target: GST-Rok-C97-191 (Bacillus subtilis subsp. subtilis str. …, UniProt O34857 97-191)
Sequence: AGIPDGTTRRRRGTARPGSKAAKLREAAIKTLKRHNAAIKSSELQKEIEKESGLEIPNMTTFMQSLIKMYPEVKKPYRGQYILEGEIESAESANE
Experiment: protein binding microarray; high values mean tight binding
Settings: protein: recombinant; tags: GST (pTH5325, pDEST15-Magic modified); dsDNA, one strand shown
Over roughly 33,000 sequences, “e-score” has its median near -0.038; the highest 2% begin near 0.33. This excerpt belongs to a sample that is enriched for the highest values.
Form field: binding signal (one value per entry).
Please respond with the number in E-score and leave the unit unwritten.

Worked examples, 3 sequences total:
chainSequence	binding signal [E-score]
ACCTACTA	0.343
AAAGGGTT	-0.0515
CACTACTA	0.344

-- ask Supply measured binding signal of ACTAAACT in your reply.
-- reply 0.244

-- ask Supply measured binding signal of ACCTACTG in your reply.
-- reply 0.238

-- ask Supply measured binding signal of CGAGTAGC in your reply.
-- reply -0.0476

-- ask Supply measured binding signal of AGCTAATC in your reply.
-- reply 0.102

-- ask Supply measured binding signal of CCCTACTA in your reply.
-- reply 0.124

-- ask Supply measured binding signal of AAGGTTGA in your reply.
-- reply 0.063

-- ask Supply measured binding signal of CAGAAACG in your reply.
-- reply -0.0943

-- ask Supply measured binding signal of CTAGTACC in your reply.
-- reply 0.244

---

Biological target: GST-Rok-C97-191 (Bacillus subtilis subsp. subtilis str. …, UniProt O34857 97-191)
Sequence: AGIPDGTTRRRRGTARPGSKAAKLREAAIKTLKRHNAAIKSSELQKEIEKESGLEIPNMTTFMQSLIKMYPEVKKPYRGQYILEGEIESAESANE
Assay: protein binding microarray; high values mean tight binding
Conditions: protein: recombinant; tags: GST (pTH5325, pDEST15-Magic modified); dsDNA, one strand shown
The full ranking holds about 33,000 sequences; the median of “e-score” is about -0.038, and the highest 2% start at about 0.33. The sample holds the highest values, similar sequences and a random draw of the others, so the mix is not that of the screen.
Recorded binding signal determines the group label, using low class (below 0.05 E-score), middle class (0.05 E-score to below 0.2 E-score), high class (0.2 E-score or more)

Before answering, review these 5 worked examples.
chainSequence	classLabel
ACTAGTAT	high class
CCTAGTAG	high class
ATTAACTG	high class
CTTAACTA	high class
GCCGCGCA	low class

-- ask Assign a category based on measured binding signal for GTTAACGA and give only the class name.
-- reply low class

-- ask Assign a category based on measured binding signal for CAATGACG and give only the class name.
-- reply low class

---

Target: GST-Rok-C97-191 (Bacillus subtilis subsp. subtilis str. …, UniProt O34857 97-191)
Sequence: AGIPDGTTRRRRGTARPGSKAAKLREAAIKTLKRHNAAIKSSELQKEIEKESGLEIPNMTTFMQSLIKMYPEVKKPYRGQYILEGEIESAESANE
Experiment: protein binding microarray; Rok is a gene silencer of Bacillus subtilis; high values mean tight binding
Details: protein: recombinant; tags: GST (pTH5325, pDEST15-Magic modified); dsDNA, one strand shown
In all, about 33,000 sequences were measured (“e-score”: median about -0.038, highest 2% from about 0.33 on). What follows is part of a selection rich in the highest values, with near analogues and random picks from the rest.
Lab note - cut at 0.3 E-score for binding signal: 1 if strictly below, -1 if not.

Before answering, review these 10 worked examples.
chainSequence	classLabel
AGGTTCAG	1
ATAATATA	-1
ACCCACTG	1
ATAATATC	1
CTAATATC	1
GAAGTATA	1
AAAACTAC	-1
CTGGCCCC	1
AATTTTTA	1
TAGATATA	-1

-- ask Please check: binding signal for GAAGAAAC , strictly under 0.3 E-score or not?
-- reply 1

-- ask Please check: binding signal for AGGTAGAT , strictly under 0.3 E-score or not?
-- reply -1

-- ask Please check: binding signal for AAATTTGA , strictly under 0.3 E-score or not?
-- reply 1

-- ask Please check: binding signal for AAATTTTA , strictly under 0.3 E-score or not?
-- reply -1

-- ask Please check: binding signal for AAAACTAT , strictly under 0.3 E-score or not?
-- reply -1

-- ask Please check: binding signal for CCTGAAAC , strictly under 0.3 E-score or not?
-- reply 1

-- ask Please check: binding signal for AAAACTGC , strictly under 0.3 E-score or not?
-- reply 1

-- ask Please check: binding signal for CAAGTATA , strictly under 0.3 E-score or not?
-- reply 1

-- ask Please check: binding signal for ACGCACCA , strictly under 0.3 E-score or not?
-- reply 1

-- ask Please check: binding signal for CTAGAAAG , strictly under 0.3 E-score or not?
-- reply 1

-- ask Please check: binding signal for AAAACTAA , strictly under 0.3 E-score or not?
-- reply 1

-- ask Please check: binding signal for CATGTAAA , strictly under 0.3 E-score or not?
-- reply 1

-- ask Please check: binding signal for AAAACTAG , strictly under 0.3 E-score or not?
-- reply -1
